B1: library; numbered along this chain (parent)
chain: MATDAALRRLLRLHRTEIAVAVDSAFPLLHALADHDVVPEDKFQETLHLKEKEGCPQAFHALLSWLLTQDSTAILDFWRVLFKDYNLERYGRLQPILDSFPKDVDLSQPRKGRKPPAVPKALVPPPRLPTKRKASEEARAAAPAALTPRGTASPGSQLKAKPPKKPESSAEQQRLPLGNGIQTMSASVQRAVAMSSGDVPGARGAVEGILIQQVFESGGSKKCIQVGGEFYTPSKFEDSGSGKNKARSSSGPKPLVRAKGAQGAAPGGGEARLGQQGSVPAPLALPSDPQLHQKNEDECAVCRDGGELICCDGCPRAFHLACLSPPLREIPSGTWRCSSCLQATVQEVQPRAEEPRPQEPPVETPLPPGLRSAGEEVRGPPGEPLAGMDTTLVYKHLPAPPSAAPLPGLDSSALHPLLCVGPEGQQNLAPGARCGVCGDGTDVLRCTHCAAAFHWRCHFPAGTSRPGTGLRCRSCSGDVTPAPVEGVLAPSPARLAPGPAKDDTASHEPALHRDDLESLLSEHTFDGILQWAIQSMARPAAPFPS

Variants of: B1
Method Notes: AIRE transcriptional activation functional score (insulin promoter-GFP; nonsense median 0, synonymous median 1) (normalised score); higher = higher AIRE activity (more reporter activation)
Conditions: with insulin promoter-GFP reporter in HEK293
Attribute: AIRE transcriptional activation functional score
Keep it simple and answer with nothing but the number.

Mutation Id | Result Number
S535H | 0.704

Record summary for F59V : reported AIRE transcriptional activation functional score = 0.903

Record summary for A541W : reported AIRE transcriptional activation functional score = 0.259

Record summary for S195H : reported AIRE transcriptional activation functional score = 0.996

Record summary for A160E : reported AIRE transcriptional activation functional score = -0.0286

Record summary for D34P : reported AIRE transcriptional activation functional score = 0.782

Record summary for H507G : reported AIRE transcriptional activation functional score = 0.805

Record summary for Q108R : reported AIRE transcriptional activation functional score = 0.951

Record summary for A540D : reported AIRE transcriptional activation functional score = 0.625

Record summary for L414G : reported AIRE transcriptional activation functional score = 0.546

Record summary for G467F : reported AIRE transcriptional activation functional score = 1.29

Record summary for E216K : reported AIRE transcriptional activation functional score = 1.2
